# TEST_PROTOCOL: Observed pharmacokinetic parameters, fixed and weight-based dosing regimen
# Assay type: in vivo, human
# MEASUREMENT_CONDITIONS: human, in vivo, oral, 5 mg, PVO 5 mg Weight-Adjusted Equivalent, N=6; read-out: AUC0-24 h Mean (SD)
ASSAY_READOUT: AUC(0-t) (ng·h/mL)
Kindly answer with a numeric value in ng·h/mL, unit omitted.

The reported AUC(0-t) of the compound `CC1(C)CCC(C)(C)c2cc(Cn3cccn3)c(/C=C/c3ccc(C(=O)O)cc3)cc21` was 249

###

# TEST_PROTOCOL: Observed pharmacokinetic parameters, fixed and weight-based dosing regimen
# Format: in vivo, human
# MEASUREMENT_CONDITIONS: human, in vivo, oral, 2.5 mg, PVO 2.5 mg Fixed Dose, N=4; read-out: AUC0-24 h Median
ASSAY_READOUT: AUC(0-t) (ng·h/mL)
Kindly answer with a numeric value in ng·h/mL, unit omitted.

The reported AUC(0-t) of the compound `CC1(C)CCC(C)(C)c2cc(Cn3cccn3)c(/C=C/c3ccc(C(=O)O)cc3)cc21` was 149

###

# TEST_PROTOCOL: Observed pharmacokinetic parameters, fixed and weight-based dosing regimen
# Type: in vivo, human
# MEASUREMENT_CONDITIONS: observed vs predicted; PVO 2.5 mg Fixed Dose
ASSAY_READOUT: AUC Ratio (A/P) max

The reported AUC Ratio (A/P) max of the molecule `CC1(C)CCC(C)(C)c2cc(Cn3cccn3)c(/C=C/c3ccc(C(=O)O)cc3)cc21` was 2.1

###

# TEST_PROTOCOL: Observed pharmacokinetic parameters, fixed and weight-based dosing regimen
# Type: in vivo, human
# MEASUREMENT_CONDITIONS: human, in vivo, oral, 5 mg, PVO 5 mg Fixed Dose, N=15; read-out: AUC0-24 h Min
ASSAY_READOUT: AUC(0-t) (ng·h/mL)
Kindly answer with a numeric value in ng·h/mL, unit omitted.

The reported AUC(0-t) of the compound CC1(C)CCC(C)(C)c2cc(Cn3cccn3)c(/C=C/c3ccc(C(=O)O)cc3)cc21 [Palovarotene] was 144

###

# TEST_PROTOCOL: Observed pharmacokinetic parameters, fixed and weight-based dosing regimen
# Format: in vivo, human
# MEASUREMENT_CONDITIONS: human, in vivo, oral, 5 mg, PVO 5 mg Fixed Dose, N=15; read-out: AUC0-24 h Mean (SD)
ASSAY_READOUT: AUC(0-t) (ng·h/mL)
Kindly answer with a numeric value in ng·h/mL, unit omitted.

The reported AUC(0-t) of the molecule `CC1(C)CCC(C)(C)c2cc(Cn3cccn3)c(/C=C/c3ccc(C(=O)O)cc3)cc21` was 347

###

# TEST_PROTOCOL: Observed pharmacokinetic parameters, fixed and weight-based dosing regimen
# Assay type: in vivo, human
# MEASUREMENT_CONDITIONS: observed vs predicted; PVO 2.5 mg Fixed Dose
ASSAY_READOUT: AUC Ratio (A/P) Min
Answer with a number only.

The reported AUC Ratio (A/P) Min of the compound `CC1(C)CCC(C)(C)c2cc(Cn3cccn3)c(/C=C/c3ccc(C(=O)O)cc3)cc21` was 0.6

Source: patent US10980778B2
